Exercise: for every item that follows, state its recorded vessel count % control.
# System: in vivo angiogenesis, blood vessel count
# procedure.text: reduction of blood vessel formation in vivo – HTS, in vivo study (AID 732);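 note: zebrafish embryos dosed at one day post fertilization; 0% = reference inhibitor and 100% = plate mean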
# particulars: stronger effect = lower value;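 tested at 30 µM in the well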
Numbers only, in %.

// worked examples, vessel count % control included
CCN(CC)CCOC(=O)c1cc(Cl)c(N)cc1OC = 114
C1CCC(N=C(NC23CC4CC(CC(C4)C2)C3)N2CCOCC2)CC1 = 111
N#CC(C#N)=Cc1ccc(O)c(O)c1 = 119
N#C/C(=C\c1c[nH]c2ccccc12)C(=O)c1ccc(O)c(O)c1 = 102
CN(C)S(=O)(=O)c1ccc2c(c1)/C(=C/c1cc3c([nH]1)CCCC3)C(=O)N2 = 120

Let us move to another entry and its vessel count % control.
Exercise: Endpoint output: vessel count % control of Nn1nnc2ccccc21 . Value?
Solution: 109

* * *

# Test system: in vivo angiogenesis, blood vessel count
# procedure.text: reduction of blood vessel formation in vivo – HTS, in vivo study (AID 732);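 note: zebrafish embryos dosed at one day post fertilization; 0% = reference inhibitor and 100% = plate mean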
# particulars: stronger effect = lower value;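 tested at 30 µM in the well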
measurement.label: vessel count % control (%)
One number for each entry, in %.

// worked examples, vessel count % control included
COC(=O)Nc1nc2ccc(C(=O)c3cccs3)cc2[nH]1 = 150
O=C(O)CC[N+](=O)[O-] = 87.6
O=C(O)c1cc(=O)c2ccccc2[nH]1 = 97.4
Clc1cnc(Oc2ccc(Oc3ncc(Cl)cc3Cl)cc2)c(Cl)c1 = 96.7
[N-]=[N+]=Nc1ccc(C(=O)CSC[C@H](NC(=O)CC[C@H](N)C(=O)O)C(=O)NCC(=O)O)cc1 = 91.6
O=c1c(-c2ccc(O)cc2)coc2cc(O)ccc12 = 105
O=C(O)c1ccccc1Nc1ccccc1 = 109
CN(C)C(N)=NCCC[C@H](N)C(=O)O = 93.3
C[C@H](NC(=O)/C(C#N)=C/c1ccc(O)c(O)c1)c1ccccc1 = 102
C/C(=C\c1ccc(C(=O)O)cc1)c1ccc2c(c1)C(C)(C)CCC2(C)C = 70

Working through the 2 compounds below one at a time, give vessel count % control for each.
1. OCc1ccc(-c2nn(Cc3ccccc3)c3ccccc23)o1
2. CC(=O)/C(C)=N/O

Solution:
1: 78.2; 2: 104

* * *

# System: in vivo angiogenesis, blood vessel count
# procedure.text: reduction of blood vessel formation in vivo – HTS, in vivo study (AID 732);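 note: zebrafish embryos dosed at one day post fertilization; 0% = reference inhibitor and 100% = plate mean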
# particulars: stronger effect = lower value;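 tested at 30 µM in the well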
measurement.label: vessel count % control (%)
Numbers only, in %.

Working through the 8 molecules below one at a time, give vessel count % control for each.
1. CN1CCN(CC(=O)N2c3ccccc3C(=O)Nc3cccnc32)CC1
2. CCCN1CCC[C@H](c2cccc(O)c2)C1
3. NC(=O)c1cc(N2CC2)c([N+](=O)[O-])cc1[N+](=O)[O-]
4. CSC(N)=NCCC[C@H](N)C(=O)O
5. COc1cc2nc(N3CCN(C(=O)c4ccco4)CC3)nc(N)c2cc1OC
6. CCC(=O)c1ccc2c(c1)N(CCCN(C)C)c1ccccc1S2
7. C[C@H]1c2cccc(O)c2C(O)=C2C(=O)[C@]3(O)C(O)=C(C(N)=O)C(=O)[C@@H](N(C)C)[C@@H]3[C@@H](O)[C@@H]21
8. NCCCC(N)(C(=O)O)C(F)F (configuration not stated)

Solution:
1: 95.1; 2: 77.4; 3: 107; 4: 107; 5: 107; 6: 112; 7: 91.8; 8: 80.5

Hello, the source for this data is PubChem BioAssay AID732, in case you need it.
